src = PubChem BioAssay AID1745844

Tested on: rodent lifetime carcinogenesis bioassay, tumor incidence TD50
Test: carcinogenic potency in animals, long-term in vivo studies, CPDB compilation (AID 1745844)
Conditions: mouse; strain Charles River CD1; females; in feed; site: subcutaneous tissue; lesion: angiosarcoma; dosed 51 weeks; study length 73 weeks
quantity: TD50 (mg/kg/day)
Numbers only, in mg/kg/day.

Look up and report measured TD50 for this entry: C=CC(O)c1ccc2c(c1)OCO2 (stereo unspecified)
1550

* * *

Tested on: rodent lifetime carcinogenesis bioassay, tumor incidence TD50
Experiment: carcinogenic potency in animals, long-term in vivo studies, CPDB compilation (AID 1745844)
Conditions: rat; strain Fischer 344; females; in feed; site: liver; lesion: hepatocellular adenoma + hepatocellular carcinoma + neoplastic nodule; dosed 103 weeks; study length 105 weeks
Answer each item with its documented TD50.
Give bare numbers, in mg/kg/day.

Some solved cases for reference:
1. Nc1ccccc1-c1ccccc1	363
2. CCCCC(CC)COC(=O)CCCCC(=O)OCC(CC)CCCC (centres undefined)	14500
3. Cc1c(N)cccc1N	455

We next turn to a different molecule, shown below.
Using the record for Nc1nc(N)nc(N)n1 , state its measured TD50.
4410

* * *

Tested on: rodent lifetime carcinogenesis bioassay, tumor incidence TD50
Assay: carcinogenic potency in animals, long-term in vivo studies, CPDB compilation (AID 1745844)
Settings: rat; strain Charles River CD (Sprague-Dawley); females; inhaled; site: nasal cavity, respiratory epithelium; lesion: adenoma; dosed 104 weeks; study length 104 weeks
quantity: TD50

Specify reported TD50 for the compound shown: C=CN1CCCC1=O
20.4 mg/kg/day

* * *

Tested on: rodent lifetime carcinogenesis bioassay, tumor incidence TD50
Assay: carcinogenic potency in animals, long-term in vivo studies, CPDB compilation (AID 1745844)
Settings: mouse; strain B6C3F1; females; by gavage; site: lung; lesion: alveolar/bronchiolar carcinoma; dosed 52 weeks; study length 82 weeks
quantity: TD50 (mg/kg/day)
Give bare numbers, in mg/kg/day.

Recall and state the measured TD50 for C[C@]12CC[C@@H]3c4ccc(OC(=O)Cc5ccc(N(CCCl)CCCl)cc5)cc4CC[C@H]3[C@@H]1CC[C@@H]2OC(=O)Cc1ccc(N(CCCl)CCCl)cc1 .
2.87

* * *

Tested on: rodent lifetime carcinogenesis bioassay, tumor incidence TD50
Experiment: carcinogenic potency in animals, long-term in vivo studies, CPDB compilation (AID 1745844)
Conditions: mouse; strain B6C3F1; males; inhaled; site: Harderian gland; lesion: papillary cystadenoma, NOS; dosed 102 weeks; study length 104 weeks
quantity: TD50

Note down TD50 recorded for C1CO1
110 mg/kg/day

* * *

Tested on: rodent lifetime carcinogenesis bioassay, tumor incidence TD50
Assay: carcinogenic potency in animals, long-term in vivo studies, CPDB compilation (AID 1745844)
Conditions: rat; strain Fischer 344; males; in drinking water; site: thyroid gland; lesion: c-cell adenoma + c-cell carcinoma; dosed 88 weeks; study length 92 weeks
quantity: TD50 (mg/kg/day)
Numbers only, in mg/kg/day.

Look up TD50 of COc1cc(-c2ccc(N)c(OC)c2)ccc1N and report it.
4.7

* * *

Tested on: rodent lifetime carcinogenesis bioassay, tumor incidence TD50
Test: carcinogenic potency in animals, long-term in vivo studies, CPDB compilation (AID 1745844)
Conditions: mouse; strain Swiss albino; females; in drinking water; site: lung; lesion: adenoma; dosed 79 weeks; study length 79 weeks
quantity: TD50 (mg/kg/day)
One number for each entry, in mg/kg/day.

Enter measured TD50, system rodent lifetime carcinogenesis bioassay, tumor incidence TD50, for the molecule shown: NC(=O)NNc1ccccc1
150

* * *

Test system: rodent lifetime carcinogenesis bioassay, tumor incidence TD50
Assay: carcinogenic potency in animals, long-term in vivo studies, CPDB compilation (AID 1745844)
Details: rat; strain Fischer 344; males; by gavage; site: forestomach; lesion: one or several types; types not named; dosed 40 weeks; study length 104 weeks
quantity: TD50

Please review the following examples before continuing.
1. CCCCN(N=O)C(N)=O	0.259 mg/kg/day
2. NC(=O)N(CCF)N=O	0.125 mg/kg/day

Give recorded TD50. NC(=O)N(CCCO)N=O
0.866 mg/kg/day

* * *

Could you please report measured TD50 for the items listed next?
Test system: rodent lifetime carcinogenesis bioassay, tumor incidence TD50
Test: carcinogenic potency in animals, long-term in vivo studies, CPDB compilation (AID 1745844)
Details: rat; strain Sprague-Dawley; males; in feed; site: thyroid gland; lesion: follicular-cell carcinoma; dosed 104 weeks; study length 104 weeks
Answers are plain numbers, in mg/kg/day.

1. Clc1ccc(-c2ccc(Cl)c(Cl)c2Cl)c(Cl)c1Cl	232

Given Clc1cccc(-c2ccc(Cl)c(Cl)c2Cl)c1Cl , respond with its TD50.
89

* * *

Test system: rodent lifetime carcinogenesis bioassay, tumor incidence TD50
Assay: carcinogenic potency in animals, long-term in vivo studies, CPDB compilation (AID 1745844)
Conditions: rat; strain Wistar-random; females; inhaled; site: mammary gland; lesion: adenocarcinoma; dosed 123 weeks; study length 123 weeks
quantity: TD50 (mg/kg/day)
One number for each entry, in mg/kg/day.

Check the records and state TD50 for CC1CO1 (stereo unspecified)
813

* * *

Tested on: rodent lifetime carcinogenesis bioassay, tumor incidence TD50
Experiment: carcinogenic potency in animals, long-term in vivo studies, CPDB compilation (AID 1745844)
Settings: rat; strain Sprague-Dawley albino; both sexes; in feed; site: liver; lesion: hyperplastic nodule; dosed 104 weeks; study length 104 weeks
quantity: TD50

Specify the recorded TD50 for C#C[C@]1(OC(C)=O)CC[C@H]2[C@@H]3CCC4=CC(=O)CC[C@@H]4[C@H]3CC[C@@]21C (tested in a mixture with another compound) , system: rodent lifetime carcinogenesis bioassay, tumor incidence TD50.
1.94 mg/kg/day

* * *

Tested on: rodent lifetime carcinogenesis bioassay, tumor incidence TD50
Assay: carcinogenic potency in animals, long-term in vivo studies, CPDB compilation (AID 1745844)
Details: rat; strain Buffalo; females; in feed; site: adrenal gland; lesion: carcinoma; dosed 47 weeks; study length 88 weeks
quantity: TD50 (mg/kg/day)
Give bare numbers, in mg/kg/day.

Fill in TD50 for record CC(=O)Nc1cccc2c1Cc1ccccc1-2
54.8

* * *

Test system: rodent lifetime carcinogenesis bioassay, tumor incidence TD50
Test: carcinogenic potency in animals, long-term in vivo studies, CPDB compilation (AID 1745844)
Conditions: rat; strain Fischer 344; males; in feed; site: colon; lesion: adenocarcinoma; dosed 103 weeks; study length 104 weeks
quantity: TD50
Returns: string containing the number followed by the unit.

Provide TD50 value for the following compound: Nc1c(Br)cc(Br)c2c1C(=O)c1ccccc1C2=O
2010 mg/kg/day

* * *

Tested on: rodent lifetime carcinogenesis bioassay, tumor incidence TD50
Test: carcinogenic potency in animals, long-term in vivo studies, CPDB compilation (AID 1745844)
Details: rat; strain Charles River CD (Sprague-Dawley); both sexes; inhaled; site: nasal cavity; lesion: malignant tumor; dosed 53 weeks; study length 104 weeks
quantity: TD50

Print rodent lifetime carcinogenesis bioassay, tumor incidence TD50 TD50 for CN(C)P(=O)(N(C)C)N(C)C .
0.0416 mg/kg/day

* * *

Tested on: rodent lifetime carcinogenesis bioassay, tumor incidence TD50
Experiment: carcinogenic potency in animals, long-term in vivo studies, CPDB compilation (AID 1745844)
Conditions: rat; strain Fischer 344; males; by gavage; site: pituitary gland; lesion: chromophobe adenoma + chromophobe carcinoma; dosed 106 weeks; study length 108 weeks
quantity: TD50 (mg/kg/day)
Answers are plain numbers, in mg/kg/day.

For the compound Cc1ccc(N=C=O)cc1N=C=O , give its measured TD50 value.
83.7

* * *

Tested on: rodent lifetime carcinogenesis bioassay, tumor incidence TD50
Test: carcinogenic potency in animals, long-term in vivo studies, CPDB compilation (AID 1745844)
Settings: mouse; strain CDF1; males; in feed; site: liver; lesion: hepatocellular adenoma; dosed 73 weeks; study length 73 weeks
quantity: TD50 (mg/kg/day)
Numbers only, in mg/kg/day.

Output TD50 of Cc1cc2c(nc1N)[nH]c1ccccc12
90.9

* * *

Tested on: rodent lifetime carcinogenesis bioassay, tumor incidence TD50
Assay: carcinogenic potency in animals, long-term in vivo studies, CPDB compilation (AID 1745844)
Settings: rat; strain Fischer 344; males; in feed; site: rectum; lesion: adenocarcinoma; dosed 103 weeks; study length 104 weeks
quantity: TD50 (mg/kg/day)
Give bare numbers, in mg/kg/day.

Give reported TD50 value for Nc1c(Br)cc(Br)c2c1C(=O)c1ccccc1C2=O
363

* * *

Tested on: rodent lifetime carcinogenesis bioassay, tumor incidence TD50
Assay: carcinogenic potency in animals, long-term in vivo studies, CPDB compilation (AID 1745844)
Conditions: rat; strain Sprague-Dawley; males; by gavage; site: lung; lesion: several types; types named in the paper; dosed 104 weeks; study length 104 weeks
quantity: TD50

Dear colleague, please send me the reported TD50 for CC(C(O)c1ccccc1)N(C)N=O (stereo unspecified) when you can.
217 mg/kg/day

* * *

Tested on: rodent lifetime carcinogenesis bioassay, tumor incidence TD50
Assay: carcinogenic potency in animals, long-term in vivo studies, CPDB compilation (AID 1745844)
Details: rat; strain Fischer 344; males; by gavage; site: palate; lesion: squamous-cell carcinoma; dosed 94 weeks; study length 104 weeks
quantity: TD50 (mg/kg/day)
Answers are plain numbers, in mg/kg/day.

Identify TD50 associated with the compound ClCC(Cl)CCl
11.7
